Data origin, for the record: ChEMBL document CHEMBL1147074

- target.or.test.system: Telomerase reverse transcriptase (Homo sapiens, UniProt O14746)
- Sequence (O14746 whole entry): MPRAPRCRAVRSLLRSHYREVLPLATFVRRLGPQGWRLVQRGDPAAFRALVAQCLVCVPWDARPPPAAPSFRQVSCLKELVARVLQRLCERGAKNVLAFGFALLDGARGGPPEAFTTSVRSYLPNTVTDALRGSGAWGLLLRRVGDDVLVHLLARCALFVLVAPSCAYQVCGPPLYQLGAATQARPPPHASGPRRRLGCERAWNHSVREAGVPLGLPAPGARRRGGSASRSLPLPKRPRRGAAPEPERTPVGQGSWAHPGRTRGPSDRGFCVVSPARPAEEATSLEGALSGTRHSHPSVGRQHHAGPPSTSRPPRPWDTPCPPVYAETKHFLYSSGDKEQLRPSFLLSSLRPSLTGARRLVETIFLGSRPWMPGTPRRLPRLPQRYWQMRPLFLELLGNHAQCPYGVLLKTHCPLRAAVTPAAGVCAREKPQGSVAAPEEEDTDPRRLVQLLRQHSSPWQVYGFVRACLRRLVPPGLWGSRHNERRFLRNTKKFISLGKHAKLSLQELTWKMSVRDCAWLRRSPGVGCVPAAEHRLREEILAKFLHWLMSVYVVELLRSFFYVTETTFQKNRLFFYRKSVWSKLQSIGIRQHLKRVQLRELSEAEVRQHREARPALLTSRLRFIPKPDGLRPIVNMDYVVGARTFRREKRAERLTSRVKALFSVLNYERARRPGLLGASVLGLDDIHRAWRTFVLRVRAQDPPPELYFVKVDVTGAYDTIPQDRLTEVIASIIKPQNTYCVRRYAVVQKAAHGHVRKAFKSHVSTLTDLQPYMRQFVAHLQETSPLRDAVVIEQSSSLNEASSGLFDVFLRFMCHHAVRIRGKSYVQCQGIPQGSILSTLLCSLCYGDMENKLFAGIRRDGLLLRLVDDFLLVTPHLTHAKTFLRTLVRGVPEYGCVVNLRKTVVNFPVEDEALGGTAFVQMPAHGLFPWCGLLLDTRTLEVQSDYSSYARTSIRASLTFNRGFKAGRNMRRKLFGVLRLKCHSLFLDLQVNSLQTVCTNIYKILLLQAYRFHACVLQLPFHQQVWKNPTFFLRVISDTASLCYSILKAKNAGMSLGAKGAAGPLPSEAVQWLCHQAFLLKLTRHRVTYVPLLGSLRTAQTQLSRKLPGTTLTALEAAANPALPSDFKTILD
- experimental.details: Inhibition of human telomerase expressed in HEK293T cells in presence of primer TS by primer extension assay
- Format: cell-based
- condition.parameters: hek-293t
measured.parameter: IC50

[[record]]
molecule = "Cc1oc2nc1-c1nc(co1)-c1nc(co1)-c1nc(co1)-c1nc(co1)-c1nc(co1)C1=NC(CS1)c1nc-2c(C)o1 (stereo unspecified) [TELOMESTATIN]"
target_or_test_system = "Telomerase reverse transcriptase (Homo sapiens, UniProt O14746)"
measured_parameter = "IC50"
meas_value = "1150 nM"


----------
- target.or.test.system: Telomerase reverse transcriptase (Homo sapiens, UniProt O14746)
- experimental.details: Inhibition of human telomerase expressed in HEK293T cells in presence of primer (T2AG3)4 by primer extension assay
- Assay type: cell-based
- condition.parameters: hek-293t
pIC50: −log10 of the molar value.
measured.parameter: pIC50

[[record]]
compound = "Cc1oc2nc1-c1nc(co1)-c1nc(co1)-c1nc(co1)-c1nc(co1)-c1nc(co1)C1=NC(CS1)c1nc-2c(C)o1 (stereo unspecified) [TELOMESTATIN]"
meas_value = 7.24


----------
- target.or.test.system: Telomerase reverse transcriptase (Homo sapiens, UniProt O14746)
- experimental.details: Inhibition of human telomerase expressed in HEK293T cells in presence of primer (T2AG3)3 by primer extension assay
- Type: cell-based
- condition.parameters: hek-293t
pIC50: −log10 of the molar value.
pIC50: recorded values
measured.parameter: pIC50

[[record]]
molecule = "C[n+]1ccc(-c2c3nc(c(-c4cc[n+](C)cc4)c4ccc([nH]4)c(-c4cc[n+](C)cc4)c4nc(c(-c5cc[n+](C)cc5)c5ccc2[nH]5)C=C4)C=C3)cc1 [TMPYP4]"
meas_value = 6.15

[[record]]
molecule = "CN(C)c1ccc(Nc2c3ccc(NC(=O)CCN4CCCC4)cc3nc3cc(NC(=O)CCN4CCCC4)ccc23)cc1"
meas_value = 6.08

[[record]]
molecule = "Cc1oc2nc1-c1nc(co1)-c1nc(co1)-c1nc(co1)-c1nc(co1)-c1nc(co1)C1=NC(CS1)c1nc-2c(C)o1 (stereo not drawn) [TELOMESTATIN]"
meas_value = 6.05

